Molecular target: Replicase polyprotein 1ab (Severe acute respiratory syndrome coronavirus 2, UniProt P0DTD1)
Experiment: Inhibition of SARS-CoV-2 PL protease using (Z)-Arg-Leu-Arg-Gly-Gly-4-methyl-coumaryl-7-amide as substrate and varying concentration of […] by Lineweaver-burk plot analysis
measure-name: Ki (µM)
Provide only the numeric value, understood in µM.

// query Please report the recorded Ki for Cc1ccc(CNC(=O)c2ccc(C(C)(C)C)cc2)cc1C(=O)N[C@H](C)c1cccc2ccccc12 .
// result 4.1

// query // same read-out, input: Cc1ccc(CNC(=O)C(=O)O)cc1C(=O)N[C@H](C)c1cccc2ccccc12
// result 4.4

// query // same read-out, input: Cc1ccc(CNC(=O)c2ccc(F)c(F)c2)cc1C(=O)N[C@H](C)c1cccc2ccccc12
// result 5.6
